Reference source: patent US20260274955A1

# assay system: T1, Anti-CD28 Fab (SEQ ID NOs: 202, 203)
# T1 construct: biotinylated and captured on neutravidin coated plates in the phage ELISA
# T1 sequence (VH, as listed by the source, chain 1 of 2): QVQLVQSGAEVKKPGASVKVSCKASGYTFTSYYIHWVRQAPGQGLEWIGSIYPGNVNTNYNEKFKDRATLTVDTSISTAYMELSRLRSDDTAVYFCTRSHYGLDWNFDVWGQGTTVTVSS
# T1 sequence (VL, as listed by the source, chain 2 of 2): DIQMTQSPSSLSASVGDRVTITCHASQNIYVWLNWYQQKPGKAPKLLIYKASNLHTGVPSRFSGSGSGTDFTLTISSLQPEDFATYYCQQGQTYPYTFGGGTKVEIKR
# measurement protocol: phage ELISA, Fab on plate;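 note: crude clonal phage supernatants added to wells pretreated with blocking buffer with or without CD28 antigen, then bound phage read out via HRP-linked anti-M13 antibody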
metric: Anti-CD28 Fab (SEQ ID NOs: 202, 203) signal

>  <binder>
YCAGHASEYMAKCL [Phage-650]

>  <test value>
1.33

$$$$
>  <binder>
YCDGHLPLYMQKCF [Phage-652]

>  <test value>
1.33

$$$$
>  <binder>
YCDGHLLQYMHKCL [Phage-644]

>  <test value>
1.35

$$$$
>  <binder>
YCEGHAEQYMEKCL [Phage-713]

>  <test value>
1.17

$$$$
>  <binder>
YCEGHLQEHMAKCL [Phage-684]

>  <test value>
1.25

$$$$
>  <binder>
YCDGHSPAFIQKCL [Phage-606]

>  <test value>
1.42

$$$$
>  <binder>
YCDGHSAEYIAKCL [Phage-662]

>  <test value>
1.31

$$$$
>  <binder>
YCEGHMPEYLAKCL [Phage-707]

>  <test value>
1.18

$$$$
